# Test system: Trichophyton rubrum
# ASSAY DETAILS: Antifungal activity against Trichophyton rubrum IFO 9185 assessed as growth inhibition at 37 degC for 48 hr
# Assay type: functional
# PARTICULARS: IFO 9185, 48 h
OBSERVED PROPERTY: MBC (µg/mL)
Write it as a number; the unit µg/mL goes unstated.

Worked cases, answers included:
COMPOUND	OBSERVED PROPERTY	DISPLAY UNIT	VAL
COc1ccc(Cc2ccc(OC)c(C3SC4C(=NN(C(C)C)C4c4ccc(F)cc4)N3c3ccc([N+](=O)[O-])cc3)c2)cc1C1SC2C(=NN(C(C)C)C2c2ccc(F)cc2)N1c1ccc([N+](=O)[O-])cc1 (stereo not given)	MBC	µg/mL	25
COc1ccc(Cc2ccc(OC)c(C3SC4C(=NN(c5ccc(Cl)cc5)C4c4ccc(F)cc4)N3c3ccc(Cl)cc3)c2)cc1C1SC2C(=NN(c3ccc(Cl)cc3)C2c2ccc(F)cc2)N1c1ccc(Cl)cc1 (stereo not given)	MBC	µg/mL	12.5
COc1ccc(Cc2ccc(OC)c(C3SC4C(=NN(C)C4c4ccc(F)cc4)N3c3ccc([N+](=O)[O-])cc3)c2)cc1C1SC2C(=NN(C)C2c2ccc(F)cc2)N1c1ccc([N+](=O)[O-])cc1 (stereo not given)	MBC	µg/mL	25
COc1ccc(Cc2ccc(OC)c(C3SC4C(=NN(c5ccc(Cl)cc5)C4c4ccc(F)cc4)N3c3ccc(C)cc3)c2)cc1C1SC2C(=NN(c3ccc(Cl)cc3)C2c2ccc(F)cc2)N1c1ccc(C)cc1 (stereo not given)	MBC	µg/mL	12.5

Could you now look at the following compound, please?
Notebook: COc1ccc(Cc2ccc(OC)c(C3SC4C(=NN(C)C4c4ccc(F)cc4)N3c3ccc(Cl)cc3)c2)cc1C1SC2C(=NN(C)C2c2ccc(F)cc2)N1c1ccc(Cl)cc1 (stereo not given) , MBC read as 25

Origin of values: ChEMBL document CHEMBL3045223
